- system.under.test: HLA-A02.01 (human)
- protocol.summary: competition vs radiolabeled reference peptide on purified MHC I, gel filtration
What pIC50 was measured for each of the following?
Hey, just a heads up that pIC50 is the negative log base 10 of the concentration in molar.

*Q* Any idea what its pIC50 is? The binder is YLVIQLQDKF (also called EGFR: SEPT14)
*A* 5.69

*Q* Form field: reported pIC50 of VVPLCDLLL (also called ESR1, Y537C)
*A* 5.92

*Q* Look up pIC50: LMELMAGGDL (also called ALK, L1196M)
*A* 6.51

*Q* Could you share which pIC50 value was measured for IQLQDKFEHL (also called EGFR: SEPT14) ?
*A* 5.37
